Data origin: patent US7183319B2

assay-comment: in vitro
test-settings: bovine, serum
measured-metric: half-life

Task item: Recorded half-life for O=C(NCCc1ccc(O)cc1)Oc1ccc(N(CCCl)CCCl)cc1 [1.1.1] , please?
Reply: ~2.5 h

Task item: Any idea what half-life was measured for COC(=O)[C@H](Cc1ccc(O)cc1)NC(=S)Oc1ccc(N(CCCl)CCCl)cc1 [2.2.1] ?
Reply: ~1.5 h
